Biological target: Left-right determination factor 2 (Homo sapiens)
Experiment: small molecules binding LEFTY2 protein – biochemical, small-molecule microarray, 635 nm fluorescence scan, primary screen (AID 1110)
Settings: higher = more signal
Please use t whenever composite z-score is not below -0.4, and f whenever it is.

compound	categoryLabel
Cc1ccc(S[C@]2(C(=O)NCc3ccccc3)CC(=O)N(Cc3cc(C(F)(F)F)cc(C(F)(F)F)c3)[C@@H]2c2ccc(CO)cc2)cc1	f
CC(=O)N1Cc2ccccc2C[C@@]2(N=C(c3ccc(OCCCO)cc3)O[C@H]2c2ccccc2)C1=O	t
O=C(NCC(F)(F)F)[C@@H]1c2ccccc2C(=O)N(Cc2ccccc2)[C@H]1c1ccc(CO)cc1	f
Cc1ccc(N2C(=O)c3ccccc3[C@](C)(C(=O)NCCN3CCOCC3)[C@@H]2c2ccc(CO)cc2)nc1	f
C=CCC(OC(C)=O)[C@@H]1[C@@H](N(Cc2cc3ccccc3o2)C(=O)c2ccc(-c3ccccc3)cc2)c2cc(OCCCO)ccc2N1C(=O)Cc1ccc2ccccc2c1 (some centres undefined)	t
O=C(NCc1ccccc1)[C@@H]1c2ccccc2C(=O)N(C2CCCCC2)[C@H]1c1ccc(CO)cc1	t
C[N+](C)(C)CCCCNC(=O)[C@H]1C[C@H]2C(=O)N3CCC[C@H]3C(=O)N2[C@H]1c1ccc(O)cc1	t
C=CCOC(=O)[C@H]1[C@@H]2C(=O)O[C@@H](c3ccccc3)[C@@H](c3ccccc3)N2[C@@H](c2ccc(OCCOC(=O)[C@@H]3C[C@@H]4C(=O)NCC(=O)N4[C@@H]3c3ccc(O)cc3)cc2)[C@]12C(=O)Nc1ccc(I)cc12	t
O=C1OCCC/C=C\[C@H]2OC34C=CCN(Cn5nnc6ccccc65)C(=O)[C@H]3N(CCCO)C(=O)[C@@H]4C12 (some centres undefined)	f
CN1C(=O)C2C=CC(C(O)c3ccccc3)N(NC(=O)OC(C)(C)C)C2C1=O (centres undefined)	f
CN(C)CCCN1C(=O)[C@@]2(c3ccc([N+](=O)[O-])cc3)CC(=O)N(C3CCCCC3)[C@@H]2c2ccc(CO)cc21	t
COc1ccc([Si](C)(C)[C@H]2[C@H](CCO)O[C@@]3(C(=O)N(Cc4ccccc4)c4ccc(N5C(=O)COc6ccccc65)cc43)[C@@H]2C)cc1	t
O=C1O[C@@H](c2ccccc2)[C@@H](c2ccccc2)N2[C@@H](c3ccccc3OCCO)[C@]3(C(=O)Nc4ccc(C#CC5(O)CCCCCC5)cc43)[C@@H](C(=O)NC[C@H](O)c3ccccc3)[C@H]12	t
CCCNC(=O)[C@@]1(C)c2ccccc2C(=O)N(Cc2cc(C(F)(F)F)cc(C(F)(F)F)c2)[C@H]1c1ccc(CO)cc1	f
